- System: CCRIS mutagenicity, Ames/micronucleus/aberration tests
- Measurement Notes: CCRIS mutagenicity studies
- Protocol Conditions: Test System: AMES SALMONELLA TYPHIMURIUM; Strain/Indicator: TA1535; Metabolic Activation: HAMSTER, LIVER, S-9, AROCLOR 1254 (10%); Method: PREINCUBATION
Calls of active or inactive are those of the source. The rule behind the calls is not given here.
Outcomes: 1 (yes) (active), 0 (no) (inactive)

In [3]: df
Out[3]:
                                    molecule  qualitative_label
 0  C=C(C)C1CC=C(C)C(O)C1 (stereo not drawn)             0 (no)
 1                   O=c1[nH]cc(F)c(=O)[nH]1             0 (no)
 2                               CCCCCNCCCCC             0 (no)
 3                              [Cl][Pd][Cl]             0 (no)
 4  Nc1c(N=Nc2ccc(-c3ccc(NN=C4C=CC(=O)C=C4)cc3)cc2)c(S(=O)(=O)O)cc2c1C(=O)/C(=N/Nc1ccccc1)C(S(=O)(=O)O)=C2            1 (yes)
 5           COc1ccc(CN(CCN(C)C)c2ccccn2)cc1             0 (no)
 6                            NC(=O)c1cnccn1             0 (no)
 7  C=C1C/C(=C/C)C(=O)O[C@@H]2CCN3CC=C(COC(=O)[C@]1(C)O)[C@H]23             0 (no)
 8  CCCCC(CC)COC(=O)c1ccccc1C(=O)OCC(CC)CCCC (stereo not drawn)             0 (no)
 9  CC(C)CCC[C@@H](C)[C@H]1CC[C@H]2[C@@H]3CC=C4C[C@@H](OC(=O)Cc5ccc(N(CCCl)CCCl)cc5)CC[C@]4(C)[C@H]3CC[C@]12C             0 (no)
10                        CC(C)(C)OOC(C)(C)C             0 (no)
11                           CC(=O)OCc1ccco1             0 (no)
12               CN(C)CCN(Cc1ccccc1)c1ccccc1             0 (no)
13         CC(N)Cc1ccccc1 (stereo not drawn)             0 (no)
14                                 O=C1CCCO1             0 (no)
15          CC(=O)Nc1ccc(N=Nc2cc(C)ccc2O)cc1             0 (no)
16                          C=C(C)C(=O)OCCCC             0 (no)
17  O=C1c2ccccc2-c2ccc3c4c(ccc1c24)-c1ccccc1C3=O             0 (no)
18                           CCNc1cc(O)ccc1C             0 (no)
19                   Nc1ccccc1C(=O)OC1CCCCC1             0 (no)
20  CN(C)CCC(c1ccccc1)c1ccccn1 (stereo not drawn)             0 (no)
21  CCCCCCC(C)COC(=O)c1ccccc1C(=O)OCC(C)CCCCCC (stereo not drawn)             0 (no)
22                           C=CC[Si](C)(C)C             0 (no)
23                CC(O)CN (stereo not drawn)            1 (yes)
24                            Nc1ccc(Cl)cc1N             0 (no)
25                             Nc1ccc(Br)cc1             0 (no)
26  OC1C2(Cl)C3(Cl)C4(Cl)C(Cl)(Cl)C5(Cl)C3(Cl)C1(Cl)C5(Cl)C24Cl (stereo not drawn)             0 (no)
27                          O=C1CCc2ccccc2O1             0 (no)
